Catalogue of IC50 readings, one per entry.
System: ZIKV-induced caspase 3/7 activity in SNB-19 cells
Test: Caspase 3/7 activity assay, ZIKV-infected SNB-19 cells
Type: cell-based
Conditions: Homo sapiens; ZIKV-infected SNB-19 cells; read-out: Caspase 3 (IC50, uM) SNB-19
Express it in µM; write the number only.

Previously resolved entries follow.
CC(/C=C1\SC(=S)N(CC(=O)O)C1=O)=C\c1ccccc1 [Epalrestat] :: 20.6
O=C(/C=C/C=C/c1ccc2c(c1)OCO2)N1CCCCC1 [Piperine] :: 19.5
c1ccc(CCNc2nc(-c3ccccc3)cs2)cc1 [Fanetizole] :: 17.3
O=c1c2ccccc2[se]n1-c1ccccc1 [Ebselen] :: 17.3

Then this compound:
Could you share which IC50 value was measured for O=C(Nc1ccc(C(=O)O)c(O)c1)c1ccccc1 [Benzoylpas] ?
6.9
